# Test system: edema
# Method: rat active anaphylaxis model (paw edema after bovine serum albumin challenge)
# Assay type: in vivo
# Measurement conditions: 100 mg/kg intraperitoneally, 1 h before challenge; paw volume 90 min post challenge
Collected Active Anaphylaxis % Inhibition values appear next to each entry.
Numeric answer only, unit % assumed.

- Compound: "CCOC(=O)C1=C(O)COC1=Nc1ccc(C(C)=O)cc1"
  Active Anaphylaxis % Inhibition / %: 56
- Compound: "CCOC(=O)C1=C(Nc2ccccc2)OC(C)(C)C1=O"
  Active Anaphylaxis % Inhibition / %: 16
- Compound: "O=C(O)C1=C(N[C@@H]2C[C@H]2c2ccccc2)OCC1=O (relative stereo)"
  Active Anaphylaxis % Inhibition / %: 22
- Compound: "COc1ccccc1NC1=C(C(=O)O)C(=O)CO1"
  Active Anaphylaxis % Inhibition / %: 45
- Compound: "CCOC(=O)C1=C(O)COC1=Nc1ccc(Br)cc1"
  Active Anaphylaxis % Inhibition / %: 38
- Compound: "CC1OC(Nc2ccccc2)=C(C(=O)O)C1=O (stereo not drawn)"
  Active Anaphylaxis % Inhibition / %: 60
- Compound: "Cc1ccc([C@@H]2C[C@H]2NC2=C(C(=O)O)C(=O)CO2)cc1 (relative stereo)"
  Active Anaphylaxis % Inhibition / %: 45
- Compound: "O=C1COC(Nc2ccccc2)=C1C(=O)Nc1ccccc1"
  Active Anaphylaxis % Inhibition / %: 46

# ---- query compound ----
Dear colleague, I am looking for the recorded Active Anaphylaxis % Inhibition of the following compound: `CCOC(=O)C1=C(O)COC1=Nc1cccc([N+](=O)[O-])c1` 37
